target: human dopamine D2L receptors (long isoform) (Homo sapiens); construct: expressed in transfected cells; membranes); assay: Dopamine D2L receptor binding ([125I] iodospiperone), basis of selectivity Ki(D2)/Ki(D3); conditions: Table 7; compounds of formula IIa
assay.metric: D2/D3

# example entries with known answers
>>> reading("COCc1nnc(SCCCN2CCN(c3cc(C(F)F)nc(C(C)(C)C)n3)CC2)n1C.Cl")
96
>>> reading("CCc1nnc(SCCCN2CCN(c3cc(C(F)(F)F)nc(C(C)(C)C)n3)CC2)n1C.Cl")
364
>>> reading("CCCc1cc(N2CCN(CCCSc3nnc(CC)n3C)CC2)nc(C(C)(C)C)n1.Cl")
470
>>> reading("Cl.Cn1c(SCCCN2CCN(c3cc(C(F)F)nc(C(C)(C)C)n3)CC2)nnc1C(C)(C)C")
115
>>> reading("CC(=O)O.Cn1c(SCCCN2CCN(c3cc(C(F)(F)F)nc(C(C)(C)C)n3)CC2)nnc1C1CCC1")
134

[1] Cl.Cn1c(SCCCN2CCN(c3cc(C(F)(F)F)nc(C(C)(C)C)n3)CC2)nnc1C1CC1
[2] Cl.Cn1c(SCCCN2CCN(c3cc(C(F)(F)F)nc(C(C)(C)C)n3)CC2)nnc1C(F)(F)F
Given the listed records, identify the one among 1 and 2 with higher D2/D3. Which one? Tell me its label.
1
(1: 293, 2: 157)

[I] Cc1nnc(SCCCN2CCN(c3cc(C(F)(F)F)nc(C(C)(C)C)n3)CC2)n1C.Cl
[II] COCc1nnc(SCCCN2CCN(c3cc(C(F)(F)F)nc(C(C)(C)C)n3)CC2)n1C.Cl
Hi team, can someone confirm which has the larger D2/D3: I or II ? Thanks. // respond with label for picked entry
II

====

target: human dopamine D2L receptors (long isoform) (Homo sapiens, UniProt P14416); construct: expressed in transfected cells; membranes); experiment: Dopamine D2L receptor binding ([125I] iodospiperone), basis of selectivity Ki(D2)/Ki(D3); settings: Table 6; D2L vs D3
Sequence (P14416 whole entry, canonical isoform): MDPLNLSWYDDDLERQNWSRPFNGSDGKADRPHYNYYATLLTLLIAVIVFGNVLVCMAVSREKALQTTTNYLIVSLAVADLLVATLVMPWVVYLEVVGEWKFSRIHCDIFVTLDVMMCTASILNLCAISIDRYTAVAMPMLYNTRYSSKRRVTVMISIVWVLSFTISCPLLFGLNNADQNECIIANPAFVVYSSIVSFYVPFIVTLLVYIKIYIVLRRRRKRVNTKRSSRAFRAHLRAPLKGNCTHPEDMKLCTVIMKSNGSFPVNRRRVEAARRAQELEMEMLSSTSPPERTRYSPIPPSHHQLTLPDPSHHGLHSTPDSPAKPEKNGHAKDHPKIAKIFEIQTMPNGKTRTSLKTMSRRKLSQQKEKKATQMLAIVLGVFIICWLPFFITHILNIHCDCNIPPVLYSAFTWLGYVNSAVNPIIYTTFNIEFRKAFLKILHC
assay.metric: Selectivity [Ki(D2)/Ki(D3)]

The following molecules have reported results that may help.
>>> reading("CC(C)c1cc(N2CCN(CCCS(=O)(=O)c3nncn3C)CC2)nc(C(C)(C)C)n1")
49
>>> reading("Cl.Cn1cnc(S(=O)(=O)CCCN2CCN(c3cc(C(F)(F)F)nc(C(C)(C)C)n3)CC2)n1")
17
>>> reading("Cn1cnnc1[S+]([O-])CCCN1CCN(c2cc(C(C)(C)C)nc(C(C)(C)C)n2)CC1 (centres unmarked)")
17
>>> reading("CCCc1cc(N2CCN(CCCS(=O)(=O)c3nncn3C)CC2)nc(C(C)(C)C)n1")
33
>>> reading("Cl.Cn1cnc([S+]([O-])CCCN2CCN(c3cc(C(C)(C)C)nc(C(C)(C)C)n3)CC2)n1 (centres unmarked)")
51

[A] CCCc1cc(N2CCN(CCC[S+]([O-])c3ncn(C)n3)CC2)nc(C(C)(C)C)n1.Cl (centres unmarked)
[B] Cn1cnnc1S(=O)(=O)CCCN1CCN(c2cc(C3CCCC3)nc(C(C)(C)C)n2)CC1
Which record would sort first by descending Selectivity [Ki(D2)/Ki(D3)], A or B ? When you have decided, please share the label of that item.
A

====

assay: Concentration of compounds in plasma and brain following oral dosing; assay type: in vivo, Sprague-Dawley rats; details: Table 7; male rats, 10 mg/kg orally by gavage
assay.metric: Brain level (ng/g)

>>> reading("CCc1nnc(SCCCN2CCN(c3cc(C(F)(F)F)nc(C(C)(C)C)n3)CC2)n1C.Cl")
1410
>>> reading("CCCc1cc(N2CCN(CCCSc3nnc(CC)n3C)CC2)nc(C(C)(C)C)n1.Cl")
840

[A] CCCc1cc(N2CCN(CCCSc3nnc(COC)n3C)CC2)nc(C(C)(C)C)n1.Cl
[B] COCc1nnc(SCCCN2CCN(c3cc(C(F)F)nc(C(C)(C)C)n3)CC2)n1C.Cl
Input pair: A , B . Output: entry with lower Brain level. Return value: the label identifying the chosen record.
B

====

biological target: human dopamine D3 receptors (Homo sapiens); construct: expressed in transfected cells; membranes); assay: Dopamine D3 receptor binding ([125I]-iodosulpride displacement); conditions: Table 6; membranes of HEK-293 cells; read-out: ki D3
pKi: −log10 of the molar value.
assay.metric: pKi

Examples with answers:
>>> reading("Cn1cnnc1S(=O)(=O)CCCN1CCN(c2cc(C3CCCC3)nc(C(C)(C)C)n2)CC1")
8.12
>>> reading("CC(C)c1cc(N2CCN(CCCS(=O)(=O)c3nncn3C)CC2)nc(C(C)(C)C)n1")
7.22

[P] Cl.Cn1ncnc1S(=O)(=O)CCCN1CCN(c2cc(C(C)(C)C)nc(C(C)(C)C)n2)CC1 [Example 20, hydrochloride]
[Q] CC(C)(C)c1cc(N2CCN(CCCS(=O)(=O)c3nc[nH]n3)CC2)nc(C(C)(C)C)n1
Between these two entries, P and Q , state which has the higher pKi. Pick one and reply with its label.
P
(P: 7.58, Q: 7.32)

====

target: human dopamine D3 receptors (Homo sapiens); construct: expressed in transfected cells; membranes); test: Dopamine D3 receptor binding ([125I]-iodosulpride displacement); conditions: Table 6; membranes of HEK-293 cells; read-out: ki D3
pKi: −log10 of the molar value.
assay.metric: pKi

>>> reading("Cl.Cn1cnc(S(=O)(=O)CCCN2CCN(c3cc(C(F)(F)F)nc(C(C)(C)C)n3)CC2)n1 [Example 19, hydrochloride]")
7.49

[a] Cn1cnc(S(=O)(=O)CCCN2CCN(c3cc(C(C)(C)C)nc(C(C)(C)C)n3)CC2)n1
[b] CCCc1cc(N2CCN(CCCS(=O)(=O)c3nncn3C)CC2)nc(C(C)(C)C)n1
[c] CCCc1cc(N2CCN(CCCS(=O)(=O)c3ncn(C)n3)CC2)nc(C(C)(C)C)n1
Arrange these molecules by their pKi, starting with the largest number. Answer by listing the labels in the requested order.
a, c, b
(a: 8.01, c: 7.69, b: 7.35)

====

molecular target: human dopamine D2L receptors (long isoform) (Homo sapiens, UniProt P14416); construct: expressed in transfected cells; membranes); assay: Dopamine D2L receptor binding ([125I] iodospiperone), basis of selectivity Ki(D2)/Ki(D3); details: Table 6; D2L vs D3
assay.metric: Selectivity [Ki(D2)/Ki(D3)]

>>> reading("Cl.Cn1cnc([S+]([O-])CCCN2CCN(c3cc(C(F)(F)F)nc(C(C)(C)C)n3)CC2)n1 (stereo not shown) [Example 21]")
18
>>> reading("Cn1cnnc1S(=O)(=O)CCCN1CCN(c2cc(C(C)(C)C)nc(C(C)(C)C)n2)CC1 [Example 17]")
53
>>> reading("CCCc1cc(N2CCN(CCCS(=O)(=O)c3ncn(C)n3)CC2)nc(C(C)(C)C)n1 [Example 29]")
59
>>> reading("Cn1cnnc1[S+]([O-])CCCN1CCN(c2cc(C3CCCC3)nc(C(C)(C)C)n2)CC1 (stereo not shown) [Example 25]")
30

[P] Cn1cnc(S(=O)(=O)CCCN2CCN(c3cc(C(C)(C)C)nc(C(C)(C)C)n3)CC2)n1 [Example 27]
[Q] CC(C)(C)c1nc(N2CCN(CCCS(=O)(=O)c3nc[nH]n3)CC2)cc(C2(C)CC2)n1 [Example 31]
[R] Cl.Cn1ncnc1S(=O)(=O)CCCN1CCN(c2cc(C(C)(C)C)nc(C(C)(C)C)n2)CC1 [Example 20]
Order these by Selectivity [Ki(D2)/Ki(D3)], descending, and give the full ranking. Enter labels, ranked according to the request.
Q, P, R
(Q: 37, P: 24, R: 8)

====

target: human dopamine D3 receptors (Homo sapiens); construct: expressed in transfected cells; membranes); assay: Dopamine D3 receptor binding ([125I]-iodosulpride displacement); conditions: Table 5; membranes of HEK-293 cells; read-out: Ki D3
assay.metric: Ki (nM)

Before answering, review these 2 worked examples.
>>> reading("Cc1nnc(S(=O)(=O)CCCN2CCN(c3cc(C(C)(C)C)nc(C(C)(C)C)n3)CC2)n1C")
6.1
>>> reading("Cn1cnnc1S(=O)(=O)CCCN1CCN(c2cc(C3CCC3)nc(C(C)(C)C)n2)CC1")
52

[A] Cc1nnc(S(=O)(=O)CCCN2CCN(c3cc(C4(C)CC4)nc(C(C)(C)C)n3)CC2)n1C
[B] Cc1nnc([S+]([O-])CCCN2CCN(c3cc(C(C)(C)C)nc(C(C)(C)C)n3)CC2)n1C (racemic)
[C] Cn1c(-c2ccc(F)cc2)nnc1[S+]([O-])CCCN1CCN(c2cc(C(F)(F)F)nc(C(C)(C)C)n2)CC1 (centres unmarked)
// sort entries: Ki, high to low Sort the labels as requested; that list is your answer.
B, C, A

====

target: human dopamine D3 receptors (Homo sapiens, UniProt P35462); construct: expressed in transfected cells; membranes); assay: Dopamine D3 receptor binding ([125I]-iodosulpride displacement); details: Table 6; membranes of HEK-293 cells; read-out: ki D3
Sequence (P35462 whole entry): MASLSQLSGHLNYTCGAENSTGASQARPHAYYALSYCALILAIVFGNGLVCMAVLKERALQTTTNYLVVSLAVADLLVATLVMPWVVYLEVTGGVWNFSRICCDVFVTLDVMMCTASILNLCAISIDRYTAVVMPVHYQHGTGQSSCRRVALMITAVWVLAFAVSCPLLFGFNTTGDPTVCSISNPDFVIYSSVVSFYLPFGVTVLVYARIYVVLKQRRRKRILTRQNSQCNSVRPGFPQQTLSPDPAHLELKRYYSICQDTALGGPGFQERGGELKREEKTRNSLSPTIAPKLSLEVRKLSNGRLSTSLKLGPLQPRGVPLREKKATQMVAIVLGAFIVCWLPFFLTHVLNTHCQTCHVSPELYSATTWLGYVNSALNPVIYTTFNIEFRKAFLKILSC
pKi: −log10 of the molar value.
assay.metric: pKi

>>> reading("Cn1cnnc1[S+]([O-])CCCN1CCN(c2cc(C(C)(C)C)nc(C(C)(C)C)n2)CC1 (stereo not drawn)")
7.60
>>> reading("CC(C)(C)c1nc(N2CCN(CCCS(=O)(=O)c3nc[nH]n3)CC2)cc(C2(C)CC2)n1")
7.65
>>> reading("Cn1cnnc1[S+]([O-])CCCN1CCN(c2cc(C3CCCC3)nc(C(C)(C)C)n2)CC1 (stereo not drawn)")
7.63
